Kindly state IC50 for each of the entries shown.
test system: NCI-H1975; assay: Cytotoxicity against human NCI-H1975 cells assessed as decrease in cell viability after 72 hrs by CellTiter-Glo assay; format: functional, cell-based; conditions: NCI-H1975, 72 h
Could you give me the number in µM? Just the number is fine.

INPUT: Consider the compound "CC(=O)O[C@@H]1C=CC(=O)C2=CCCC3(Oc4cccc5cccc(c45)O3)[C@@H]21" and give its measured IC50.
OUTPUT: 0.252

INPUT: Consider the compound "O=C1C2=CCCC3(Oc4cccc5cccc(c45)O3)[C@@H]2[C@H](O)[C@@H]2O[C@H]12" and give its measured IC50.
OUTPUT: 7.3

INPUT: Consider the compound "CN(C)C/C=C/C(=O)Nc1cc2c(Nc3ccc(F)c(Cl)c3)ncnc2cc1O[C@H]1CCOC1" and give its measured IC50.
OUTPUT: 1.97

INPUT: Consider the compound O=C1CCC(O)c2cccc(O)c21 (stereo not drawn) [4,8-DIHYDROXY-1-TETRALONE] and give its measured IC50.
OUTPUT: 50
